Tested on: Human immunodeficiency virus 1
assay_details: Antiviral activity against HIV1 3B infected in human MT4 cells assessed as inhibition of virus-induced cytopathic effect after 5 days by MTT assay in absence of human serum
Format: functional, organism-based
run_parameters: Human immunodeficiency virus 1, 3B, MT4, 120 h
Classify: yes when EC50 is strictly less than 200 nM; no when EC50 is not.

These recorded examples may help you get a feel for the data.
Cc1cc(N)cc(C)c1OCC(=O)N[C@@H](Cc1ccccc1)[C@H](O)C(=O)N1CSC(C)(C)[C@H]1C(=O)N[C@H]1c2ccccc2C[C@H]1O: no
C=CCNC(=O)[C@H]1N(C(=O)[C@@H](O)[C@H](Cc2ccccc2)NC(=O)COc2c(C)cc(N)cc2C)CSC1(C)C: yes
Cc1ccccc1CNC(=O)[C@H]1N(C(=O)[C@@H](O)[C@H](Cc2ccccc2)NC(=O)COc2c(C)cc(N(C)C)cc2C)CSC1(C)C: no
Cc1cc(N)cc(C)c1OCC(=O)N[C@@H](Cc1ccccc1)[C@H](O)C(=O)N1CSC(C)(C)[C@H]1C(=O)NC1CCCC1: no
Cc1cccc(C)c1CNC(=O)[C@H]1N(C(=O)[C@@H](O)[C@H](Cc2ccccc2)NC(=O)COc2c(C)cc(N)cc2C)CSC1(C)C: yes

Criterion: EC50 strictly below 200 nM. Is it met by Cc1cccc(C)c1OCC(=O)N[C@@H](Cc1ccccc1)[C@H](O)C(=O)N1CSC(C)(C)[C@H]1C(=O)NC(C)(C)C ?
no

Criterion: EC50 strictly below 200 nM. Is it met by Cc1cc(N)cc(C)c1OCC(=O)N[C@@H](Cc1ccccc1)[C@H](O)C(=O)N1CSC(C)(C)[C@H]1C(=O)NCc1c(Cl)cccc1Cl ?
yes

====

Test system: Human immunodeficiency virus 1
assay_details: Antiviral activity against HIV1 3B infected in human MT4 cells assessed as inhibition of virus-induced cytopathic effect after 5 days by MTT assay
Assay type: functional, organism-based
run_parameters: Human immunodeficiency virus 1, 3B, MT4, 120 h
measure_name: EC50 (nM)
Give your result in nM as a bare value.

Give the value of EC50 reported for the following: Cc1c(O)cccc1C(=O)N[C@@H](Cc1ccccc1)[C@H](O)C(=O)N1CSC(C)(C)[C@H]1C(=O)NC1CCCC1
125

Give the value of EC50 reported for the following: Cc1c(O)cccc1CNC(=O)[C@H]1N(C(=O)[C@@H](O)[C@H](Cc2ccccc2)NC(=O)c2cccc(O)c2C)CSC1(C)C
120

====

Tested on: Human immunodeficiency virus 1
assay_details: Antiviral activity against HIV1 pNL4-3 infected in human MT4 cells assessed as inhibition of virus-induced cytopathic effect after 5 days by MTT assay in presence of 50% human serum
Type: functional, organism-based
run_parameters: Human immunodeficiency virus 1, pNL4-3, MT4, 120 h
measure_name: EC50

Give the value of EC50 reported for the following: C=C(C)CNC(=O)[C@H]1N(C(=O)[C@@H](O)[C@H](Cc2ccccc2)NC(=O)COc2c(C)cc(N)cc2C)CSC1(C)C
0.082 µM

====

assay_details: Aqueous solubility in 0.1% TFA after 30 mins by RP-HPLC analysis
Type: physicochemical
run_parameters: 0.1% TFA in water
Classes are defined on solubility at 0.5 h with ranges bottom bin = under 3000 µg/mL, middle bin = from 3000 µg/mL up to 7000 µg/mL, top bin = 7000 µg/mL and over

These recorded examples may help you get a feel for the data.
Cc1cc(N)cc(C)c1OCC(=O)N[C@@H](Cc1ccccc1)[C@H](O)C(=O)N1CSC(C)(C)[C@H]1C(=O)N[C@H]1c2ccccc2C[C@H]1O: middle bin
Cc1ccccc1CNC(=O)[C@H]1N(C(=O)[C@@H](O)[C@H](Cc2ccccc2)NC(=O)COc2c(C)cc(N(C)C)cc2C)CSC1(C)C: middle bin
Cc1cc(N)cc(C)c1OCC(=O)N[C@@H](Cc1ccccc1)[C@H](O)C(=O)N1CSC(C)(C)[C@H]1C(=O)N[C@H]1CCc2ccccc21: bottom bin
Cc1ccccc1CNC(=O)[C@H]1N(C(=O)[C@@H](O)[C@H](Cc2ccccc2)NC(=O)COc2c(C)cc(N)cc2C)CSC1(C)C: bottom bin
C=C(C)CNC(=O)[C@H]1N(C(=O)[C@@H](O)[C@H](Cc2ccccc2)NC(=O)COc2c(C)cc(N)cc2C)CSC1(C)C: top bin
C=CCNC(=O)[C@H]1N(C(=O)[C@@H](O)[C@H](Cc2ccccc2)NC(=O)COc2c(C)cc(N)cc2C)CSC1(C)C: top bin

Could you tell me which band Cc1cccc(C)c1CNC(=O)[C@H]1N(C(=O)[C@@H](O)[C@H](Cc2ccccc2)NC(=O)COc2c(C)cc(N)cc2C)CSC1(C)C belongs to?
bottom bin

Could you tell me which band Cc1cc(N)cc(C)c1OCC(=O)N[C@@H](Cc1ccccc1)[C@H](O)C(=O)N1CSC(C)(C)[C@H]1C(=O)NCc1c(Cl)cccc1Cl belongs to?
bottom bin

Could you tell me which band Cc1cc(N)cc(C)c1OCC(=O)N[C@@H](Cc1ccccc1)[C@H](O)C(=O)N1CSC(C)(C)[C@H]1C(=O)NC(C)(C)C belongs to?
middle bin

Could you tell me which band Cc1cc(N)cc(C)c1OCC(=O)N[C@@H](Cc1ccccc1)[C@H](O)C(=O)N1CSC(C)(C)[C@H]1C(=O)NC1CCCC1 belongs to?
top bin

Could you tell me which band Cc1cc(N)cc(C)c1OCC(=O)N[C@@H](Cc1ccccc1)[C@H](O)C(=O)N1CSC(C)(C)[C@H]1C(=O)NC/C=C\CO belongs to?
top bin
